system.under.test: A1-adenosine receptors (Rattus norvegicus, UniProt P25099)
Construct: adenosine receptors in rat cerebral cortex membranes was assayed as described; from tissue; b141 says rat striatum
Sequence (P25099 1-326): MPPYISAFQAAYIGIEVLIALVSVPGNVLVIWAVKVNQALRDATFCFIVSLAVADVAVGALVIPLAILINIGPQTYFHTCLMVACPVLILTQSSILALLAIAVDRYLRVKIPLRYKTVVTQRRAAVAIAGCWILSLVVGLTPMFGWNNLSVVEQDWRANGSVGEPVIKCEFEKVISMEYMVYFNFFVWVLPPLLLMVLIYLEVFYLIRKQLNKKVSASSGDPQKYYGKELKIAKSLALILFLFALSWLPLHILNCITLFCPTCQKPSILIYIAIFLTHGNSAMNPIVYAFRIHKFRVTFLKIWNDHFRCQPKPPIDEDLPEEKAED
assay.notes: Competitive binding assay at A1 receptors ([3H]RPIA)
details: ratio of Ki values A2/A1
value.type: A2/A1 ratio
Keep it simple and answer with nothing but the number.

Solved entries:
CCCn1c(=O)c2[nH]c(-c3ccc(OCC(=O)NCCNC(=S)Nc4cc(N=C=S)cc(NC(=S)NCCN(C)C)c4)cc3)nc2n(CCC)c1=O : 25
CCCn1c(=O)c2[nH]c(-c3ccc(OCC(=O)NCCNC(=S)Nc4cc(N=C=S)cc(C(=O)NCCNC(=O)CCCC[C@@H]5SC[C@@H]6NC(=O)N[C@@H]65)c4)cc3)nc2n(CCC)c1=O : 572
CCCn1c(=O)c2[nH]c(-c3ccc(OCC(=O)NCCNC(=S)Nc4cccc(N=C=S)c4)cc3)nc2n(CCC)c1=O : 144
CCCn1c(=O)c2[nH]c(-c3ccc(OCC(=O)NCCNC(=S)Nc4cc(N=C=S)cc(C(=O)OC(=O)c5cc(N=C=S)cc(N=C=S)c5)c4)cc3)nc2n(CCC)c1=O : 11

Now turn to the next molecule.
Value of measured A2/A1 ratio for the entry "CCCn1c(=O)c2[nH]c(-c3ccc(OCC(=O)NCCNC(=S)Nc4cccc(N=C=S)n4)cc3)nc2n(CCC)c1=O" : 27

###

system.under.test: A1-adenosine receptors (Rattus norvegicus, UniProt P25099)
Construct: adenosine receptors in rat cerebral cortex membranes was assayed as described; from tissue; b141 says rat striatum
assay.notes: Competitive binding assay at A1 receptors ([3H]RPIA)
details: ratio of Ki values A2/A1
Each entry below carries its recorded A2/A1 ratio.

# example entries with known answers
CCCn1c(=O)c2[nH]c(-c3ccc(OCC(=O)NCCNC(=S)Nc4cc(N=C=S)cc(NC(=S)NCC(=O)OC(C)(C)C)c4)cc3)nc2n(CCC)c1=O : 397
CCCn1c(=O)c2[nH]c(-c3ccc(OCC(=O)NCCNC(=S)Nc4cc(N=C=S)cc(C(=O)NCCN(C)C)c4)cc3)nc2n(CCC)c1=O : 65
CCCn1c(=O)c2[nH]c(-c3ccc(OCC(=O)NCCNC(=S)Nc4cc(N=C=S)cc(C(=O)NCCNc5ccc([N+](=O)[O-])c6nonc56)c4)cc3)nc2n(CCC)c1=O : 73
CCCn1c(=O)c2[nH]c(-c3ccc(OCC(=O)NCCNC(=S)Nc4cc(N=C=S)cc(C(=O)OCC)c4)cc3)nc2n(CCC)c1=O : 19
CCCn1c(=O)c2[nH]c(-c3ccc(OCC(=O)NCCNC(=S)Nc4cc(N=C=S)cc(C(=O)NCCNC(=O)CBr)c4)cc3)nc2n(CCC)c1=O : 44
CCCn1c(=O)c2[nH]c(-c3ccc(OCC(=O)NCCNC(=S)Nc4cc(N=C=S)cc(NC(=S)NCCNC(=S)Nc5ccc(C(=O)O)c(-c6c7ccc(=O)cc-7oc7cc(O)ccc67)c5)c4)cc3)nc2n(CCC)c1=O : 8
CCCn1c(=O)c2[nH]c(-c3ccc(OCC(=O)NCCNC(=S)Nc4cc(N=C=S)cc(NC(=S)NCCNc5ccc(N=[N+]=[N-])cc5[N+](=O)[O-])c4)cc3)nc2n(CCC)c1=O : 31
CCCn1c(=O)c2[nH]c(-c3ccc(OCC(=O)NCCNC(=S)Nc4cc(N=C=S)cc(C(N)=O)c4)cc3)nc2n(CCC)c1=O : 39
CCCn1c(=O)c2[nH]c(-c3ccc(OCC(=O)NCCNC(=S)Nc4cc(N=C=S)cc(NC(=S)NCCNC(C)=O)c4)cc3)nc2n(CCC)c1=O : 44
CCCn1c(=O)c2[nH]c(-c3ccc(OCC(=O)NCCNC(=S)Nc4cc(N=C=S)cc(N=C=S)c4)cc3)nc2n(CCC)c1=O : 894

Record "CCCn1c(=O)c2[nH]c(-c3ccc(OCC(=O)NCCNC(=S)Nc4cc(N=C=S)cc(NC(=S)NCCNC(=O)c5ccc(N=[N+]=[N-])cc5O)c4)cc3)nc2n(CCC)c1=O" . Reported A2/A1 ratio: 14
